Target: D(3) dopamine receptor (Homo sapiens)
Assay: qHTS of D3 Dopamine Receptor Antagonist: qHTS; further: on the % scale 0 is the no-effect control and ±100 the full control effect
Details: D3R cells, DiscoveRx beta-arrestin luminescence, antagonist mode; active compounds read low
Experimental: D3 DARs represent a very important target for the treatment of several neuropsychiatric disorders. Indeed, one of the most promising therapeutic applications for the D3 DAR is in the area of addiction and related disorders. […] Freshly passaged cells are plated in 1536 well white, solid bottom plates at a density of 1500 cells/well in 3microl of complete media. […] Following incubation, luminescence is measured on a ViewLux CCD-based luminometer reader using a 20 sec exposure time.
The whole screen tested about 360,000 compounds, of which about 9,100 (2.5%) were called active. Roughly 4% stayed inconclusive and do not appear here. For the sample, actives were picked, then their nearest neighbours and some compounds at random.
Readings of max response, negative = inhibition for the listed molecules
Report the value in % with no unit label.

[[record]]
molecule = "CN1OC[C@@H]2CN(C(=O)c3cccnc3)[C@H](c3ccc(N4CCCCC4)cc3)C[C@@H]21"
datavalue = 33.1

[[record]]
molecule = "COc1ccc(C(CNC(=O)c2ccc(OCc3cscn3)cc2)N2CCCC2)cc1 (centres undefined)"
datavalue = -19.8

[[record]]
molecule = "COc1cccc(-c2nc(CS(=O)CC(=O)NCc3ccc(F)cc3)c(C)o2)c1 (centres undefined)"
datavalue = -12.9

[[record]]
molecule = "CCOc1cc(C)c(S(=O)(=O)NCc2ccccn2)cc1C"
datavalue = 4.2

[[record]]
molecule = "N#CCCC(C#N)(c1cccnc1)N1CCOCC1 (centres undefined)"
datavalue = -3.79


The measured max response, negative = inhibition that "COC(=O)C[C@@H]1C=C[C@@H](NC(=O)c2cccnc2)[C@@H](CO)O1" showed for D(3) dopamine receptor (Homo sapiens) is -2.19

The measured max response, negative = inhibition that "COc1ccccc1CNC(=O)c1cc(-c2cc(F)ccc2OC)n[nH]1" showed for D(3) dopamine receptor (Homo sapiens) is 18.6

The measured max response, negative = inhibition that "O=C(CCN1CCCCC1)Nc1ccc(F)c(F)c1" showed for D(3) dopamine receptor (Homo sapiens) is 15.9

The measured max response, negative = inhibition that CSc1ccc(CN2CCC2(C)C(=O)Nc2ccc(C)c(O)c2)cc1 (centres undefined) showed for D(3) dopamine receptor (Homo sapiens) is 51.8

The measured max response, negative = inhibition that "O=C(Nc1cc(F)ccc1F)c1ccc2c(=O)n3c(nc2c1)CCC3" showed for D(3) dopamine receptor (Homo sapiens) is 8.55

The measured max response, negative = inhibition that "CC1(C)OC(=O)C2=C(C[C@@H](C3CC3)O[C@H]2CCc2cccc(Cl)c2)O1" showed for D(3) dopamine receptor (Homo sapiens) is 12.7

The measured max response, negative = inhibition that "COc1cc(F)ccc1-c1cc(C(=O)NCC2CCCCC2)[nH]n1" showed for D(3) dopamine receptor (Homo sapiens) is -75.3

The measured max response, negative = inhibition that "CCc1nc2ccc(C(=O)NC3CCN(Cc4ccccc4)CC3)cn2c1N(C)CCN1CCOCC1" showed for D(3) dopamine receptor (Homo sapiens) is 14

The measured max response, negative = inhibition that "CCOCC(=O)Nc1ncc(S(=O)(=O)c2ccc([N+](=O)[O-])cc2)s1" showed for D(3) dopamine receptor (Homo sapiens) is 8.75

* * *

Readings of max response, negative = inhibition for the listed compounds
biological target: D(3) dopamine receptor (Homo sapiens) (UniProt P35462); test: qHTS of D3 Dopamine Receptor Antagonist: qHTS; settings: D3R cells, DiscoveRx beta-arrestin luminescence, antagonist mode; active compounds read low; further: on the % scale 0 is the no-effect control and ±100 the full control effect
Sequence (P35462 whole entry, looked up): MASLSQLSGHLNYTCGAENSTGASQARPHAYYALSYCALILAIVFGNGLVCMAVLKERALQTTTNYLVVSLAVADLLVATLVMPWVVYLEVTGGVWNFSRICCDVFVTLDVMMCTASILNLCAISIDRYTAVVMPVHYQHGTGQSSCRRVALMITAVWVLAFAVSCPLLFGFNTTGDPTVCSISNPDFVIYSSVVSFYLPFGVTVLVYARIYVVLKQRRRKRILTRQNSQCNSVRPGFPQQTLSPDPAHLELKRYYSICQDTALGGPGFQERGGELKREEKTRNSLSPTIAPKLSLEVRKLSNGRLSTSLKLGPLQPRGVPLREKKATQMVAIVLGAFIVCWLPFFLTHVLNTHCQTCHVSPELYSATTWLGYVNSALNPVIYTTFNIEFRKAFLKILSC
Out of some 360,000 compounds screened, about 9,100 (2.5%) were called active. Another 4% or so got no clear call; they are omitted. The entries come from a sample that favours actives as a whole.
Report the value in % with no unit label.

Use the examples below as a reference point.
[[record]]
compound = "CC(=O)NC1CC2CCCC(C1)N2CC(=O)Nc1ccccc1 (stereo not drawn)"
unitsofmeasure = "%"
datavalue = -23

[[record]]
compound = "CCN(CC)CCCSc1nc2ccccc2s1"
unitsofmeasure = "%"
datavalue = -73.9

[[record]]
compound = "CCCCNCCS(=O)(=O)NCc1ccccc1"
unitsofmeasure = "%"
datavalue = -71.2

[[record]]
compound = "CC1(C(=O)NCc2ccc3c(c2)OCO3)CCN1CCc1ccccc1 (stereo not drawn)"
unitsofmeasure = "%"
datavalue = -10.3

[[record]]
compound = "CCC1Nc2ncnc(N3CCN(c4ccccc4)CC3)c2N(Cc2ccc(Cl)cc2)C1=O (stereo not drawn)"
unitsofmeasure = "%"
datavalue = -73.8


Now for a further compound.
response.value for "CC(=O)Nc1cccc(NC(=O)c2ccc3c(c2)CCN3S(C)(=O)=O)c1" (field: max response, negative = inhibition) = -9.74
